- Experiment description: Tmax in dog at 2 mg/kg, po
- Format: ADME, organism-based, Canis lupus familiaris
- Assay setup: in vivo
Readout label: Tmax
The answer should read as a number with its unit following.

Given the entry Cc1c(-c2c(F)cc(C(N)=O)c3[nH]c4c(c23)CC[C@H](C(C)(C)O)C4)cccc1-n1c(=O)c2cccc(F)c2n(C)c1=O (atropisomer R) , report its measured Tmax. 3 h

----------
- Experiment description: Clearance in mouse at 3 mg/kg, iv
- Type: ADME, organism-based
- Assay setup: in vivo
Readout label: clearance (mL/min/kg)
Numbers only; they are read as mL/min/kg.

Given the entry Cc1c(-c2c(F)cc(C(N)=O)c3[nH]c4c(c23)CC[C@H](C(C)(C)O)C4)cccc1-n1c(=O)c2cccc(F)c2n(C)c1=O (atropisomer R) [BMS-986142] , report its measured clearance. 4.1
